Tested on: LOX IMVI melanoma
Test: NCI tumour cell line growth inhibition, 48 h
quantity_name: TGI (µM)
Answers are plain numbers, in µM.

Please state, for each entry, its recorded TGI.
1. C[C@]12CCC3c4ccc(O)cc4CCC3C1CC[C@@]2(O)CNC(=O)/C=C/c1ccc(O)c(O)c1 (stereo not given in full)
2. COc1cc(/C(C#N)=C/c2nc3c(N4CCOCC4)nc(Cl)nc3n2C)cc(OC)c1OC
3. CN(C)CC1CC/C(=C\c2ccc(O)cc2)C1=O (stereo not given)
4. Cc1cc(-c2nc3ccc(F)cc3s2)ccc1NC(=O)[C@H](C)N
5. COc1cccc(-c2nc(-c3ccc(NC(=O)OC(C)C)cc3)[nH]c2-c2ccnc(Br)c2)c1
6. [N-]=[N+]=NC(c1ccccc1)(c1ccccc1)c1ccccc1

1. 6.52
2. 4.17
3. 5.51
4. 3.99
5. 3.36
6. 45.3

The reported measurements were obtained from PubChem BioAssay (NCI).
